B1: Pistol ribozyme (parent)
chain: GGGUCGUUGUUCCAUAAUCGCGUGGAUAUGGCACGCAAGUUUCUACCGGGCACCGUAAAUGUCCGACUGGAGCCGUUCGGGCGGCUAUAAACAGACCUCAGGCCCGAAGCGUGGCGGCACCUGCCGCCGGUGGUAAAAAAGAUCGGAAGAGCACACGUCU

variants of: B1; assay: aptazyme ON/OFF ratio, guanine; higher = stronger switching; co-transcriptional cleavage with and without guanine
MEASUREMENT_NAME: aptazyme ON/OFF ratio

Examples from the recorded data:
MUTATION_CODE	VALUE_REPORTED
U8C G9C U10C U11A	1.02
U7A G9C U10A U11A C12A C13G	1.07
U8G G9A U11C C12G	1.25
U7A U8G G9C U10G U11C C12U C13G	1.37
U7A U8A G9A U10C U11A C12A	1.08

Let's switch to this variant now.
Problem: Look at this variant and give its reported aptazyme ON/OFF ratio. U7A U8A G9A U10G C13G
Result: 1.46
